Below, IC50 values reported for Cytosolic phospholipase A2 (Homo sapiens) across several publications.
A number alone suffices; assume µM.

[
  {
    "Query Smiles": "COc1c(C(C)(C)C)cc(CS[C@H]2C[C@@H](C(=O)Nc3ccc(C=C4SC(=O)NC4=O)cc3)N(C(=O)c3ccccc3)C2)cc1C(C)(C)C",
    "IC50, µM": 1.6
  },
  {
    "Query Smiles": "Cc1cccc(Cl)c1S(=O)(=O)NCCc1c(CCOc2ccc(C(=O)O)c(F)c2)c2cc(Cl)ccc2n1C(c1ccccc1)c1ccccc1",
    "IC50, µM": 0.2
  }
]

As a next step, examine the compound that follows.
Query: Any idea what IC50 was measured for "O=C(COc1ccc(/C=C2\SC(=O)NC2=O)cc1)NC[C@@H]1C[C@@H](OCc2ccccc2-c2ccccc2)CN1C(=O)c1ccccc1C(=O)c1ccc(F)cc1" ?
Response: 0.67
